target: Muscarinic acetylcholine receptor M1 (Homo sapiens); test: Percentage inhibition of binding of [3H]quinuclidinyl benzilate to muscarinic receptors in membranes of CHO cells transfected with Muscarinic acetylcholine receptor M1; format: cell membranes; settings: concentration not given here
Exercise: state measured inhibition for each of the compounds provided.
Answers are plain numbers, in %.

COC(=O)C1CC2CCCC1N2 (centres undefined)
24

Return reported inhibition values for all items listed beneath this line.
1. COC(=O)C1C(O)CC2CCC1N2C (centres undefined)
2. CC(=O)OC(C)C[N+](C)(C)C (centres undefined)
3. CC(=O)OC1CC2CCCC1N2C (centres undefined)

1: 13; 2: 8; 3: 48

----------
Please respond with reported Ki for every item in the list.
Target: Muscarinic acetylcholine receptor M2 (Homo sapiens, UniProt P08172)
Sequence (P08172 whole entry): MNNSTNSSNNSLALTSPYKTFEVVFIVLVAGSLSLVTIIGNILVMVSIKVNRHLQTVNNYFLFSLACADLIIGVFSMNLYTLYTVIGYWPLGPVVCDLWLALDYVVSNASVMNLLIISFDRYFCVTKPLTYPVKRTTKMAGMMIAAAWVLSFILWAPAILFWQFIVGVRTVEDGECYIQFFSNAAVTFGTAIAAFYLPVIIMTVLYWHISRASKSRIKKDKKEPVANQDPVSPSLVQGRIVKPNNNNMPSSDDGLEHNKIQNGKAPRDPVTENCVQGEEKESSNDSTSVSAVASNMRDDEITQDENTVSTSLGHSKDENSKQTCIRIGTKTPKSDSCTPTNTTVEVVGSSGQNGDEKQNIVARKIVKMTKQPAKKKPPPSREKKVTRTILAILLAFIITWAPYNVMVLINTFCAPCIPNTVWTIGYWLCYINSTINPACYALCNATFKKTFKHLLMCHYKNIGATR
Assay: Inhibition of binding of [3H]quinuclidinyl benzilate to muscarinic receptors in membranes of CHO cells transfected with Muscarinic acetylcholine receptor M2
Numbers only, in nM.

Would you please look over these solved cases?
CC(=O)OC1CC2CCCC1N2 (centres undefined)
2.6
COC(=O)C1CC2CCCC1N2 (centres undefined)
480

Quick batch: Ki for everything below.
1. CC(=O)OC(C)C[N+](C)(C)C (centres undefined)
2. CC(=O)OC1CC2CCCC1N2C (centres undefined)

59
2700
